Consider the following molecules; for each one, report its growth.
- Test system: HCC-2998 colon
- experiment: NCI-60 one-dose screen, 48 h (100 = growth as untreated, 0 = no growth, -100 = all killed)
- measurement_conditions: 10 µM unless noted
Compounds without any hit were thinned out: in the full panel of roughly 83,000, 20% have a hit.
Answers are plain numbers, in %.

Recorded growth, per entry:
>>> print(df.to_string())
                      smiles_representation  observed_measurement
0  CNC(=O)c1cccc(NC(=O)c2ccc3c(c2)nnn3/C(C#N)=C/c2ccccn2)c1                 -92.7
1  O=c1onc(-c2cc3ccccc3nc2Cl)n1-c1cccc2ccccc12                  71.1
2  C/C(=N\N=C1/C(=O)Nc2ccccc21)c1ccc2c(c1)Nc1ccccc1S2                  75.7
3  O=c1c2ccccc2nc(-c2ccccc2)n1/N=C/c1ccc2ccccc2c1                  57.5

Attention now turns to another entry.
Using the record for `Cc1cc2c(cc1Cl)C(=O)/C(=C/c1ccc(F)cc1)O2` , state its measured growth.
117
